Target: T1, human IL-12Rβ2 expressed on cells (human, UniProt Q99665 24-862)
T1 sequence: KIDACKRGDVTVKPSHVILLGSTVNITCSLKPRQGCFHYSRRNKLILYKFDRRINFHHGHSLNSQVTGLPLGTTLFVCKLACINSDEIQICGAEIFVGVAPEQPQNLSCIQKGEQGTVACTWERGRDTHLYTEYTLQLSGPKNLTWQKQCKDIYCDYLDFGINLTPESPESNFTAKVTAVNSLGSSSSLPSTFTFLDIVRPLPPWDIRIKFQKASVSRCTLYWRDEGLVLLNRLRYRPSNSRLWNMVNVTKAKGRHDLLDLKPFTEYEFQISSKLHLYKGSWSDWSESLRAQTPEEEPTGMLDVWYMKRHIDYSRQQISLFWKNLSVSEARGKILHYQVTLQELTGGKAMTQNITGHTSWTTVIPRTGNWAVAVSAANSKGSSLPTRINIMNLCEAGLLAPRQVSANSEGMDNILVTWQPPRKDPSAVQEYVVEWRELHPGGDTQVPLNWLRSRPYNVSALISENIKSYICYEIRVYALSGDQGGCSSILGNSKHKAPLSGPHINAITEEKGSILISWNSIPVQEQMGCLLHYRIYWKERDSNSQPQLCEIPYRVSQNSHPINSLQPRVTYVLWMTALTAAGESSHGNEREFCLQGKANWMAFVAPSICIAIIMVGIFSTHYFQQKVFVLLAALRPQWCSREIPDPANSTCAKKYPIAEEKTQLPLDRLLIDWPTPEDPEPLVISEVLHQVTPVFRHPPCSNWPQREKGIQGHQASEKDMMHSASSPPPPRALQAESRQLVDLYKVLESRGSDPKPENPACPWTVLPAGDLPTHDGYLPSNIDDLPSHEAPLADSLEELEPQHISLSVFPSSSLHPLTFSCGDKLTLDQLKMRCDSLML
Assay: cell-based or functional assay
Endpoint Label: % Specific Cell Lysis at 0.00125 ug/mL (%)
The answer is to be given in %; state only the numeric part.

20394-FcDE (Fc fusion) VHH-Fc chain: QVQLQESGGGLVQAGDSLRLSCAASGRTFDTYIVGWFRQAPGKEREFVSALSWSDDTTIRDDSLRGRFTISRDNAKNTVYLLMNSLKPEDTAVYYCAAKAKPPAATWSSYRNREWYDYWGQGTQVTVSSAPELLGGPDVFLFPPKPKDTLMISRTPEVTCVVVDVSHEDPEVKFNWYVDGVEVHNAKTKPREEQYNSTYRVVSVLTVLHQDWLNGKEYKCKVSNKALPAPEEKTISKAKGQPREPQVYTLPPSRDELTKNQVSLTCLVKGFYPSDIAVEWESNGQPENNYKTTPPVLDSDGSFFLYSKLTVDKSRWQQGNVFSCSVMHEALHNHYTQKSLSLSPGK
54
20399-FcDE (Fc fusion) VHH-Fc chain: QVQLQESGGGLVQPGGSLRLSCAASGSILRINLMGWYRQVPGKQRELVAEMSTGGSTTYVDSVEGRFTISRDNAKNTVYLQMNSLKPEDTAVYYCNAKAWQLGRLENDDWGQGTQVTVSSAPELLGGPDVFLFPPKPKDTLMISRTPEVTCVVVDVSHEDPEVKFNWYVDGVEVHNAKTKPREEQYNSTYRVVSVLTVLHQDWLNGKEYKCKVSNKALPAPEEKTISKAKGQPREPQVYTLPPSRDELTKNQVSLTCLVKGFYPSDIAVEWESNGQPENNYKTTPPVLDSDGSFFLYSKLTVDKSRWQQGNVFSCSVMHEALHNHYTQKSLSLSPGK
61

Here's the next entry for you.
[ask] Could you share which % Specific Cell Lysis at 0.00125 ug/mL value was measured for 20415-FcDE (Fc fusion) VHH-Fc chain: QVQLQESGGGLVQPGGSLRLSCTASGSIVSIYNMDWYRQAPGNEREWVASITSSGDPYYDGSAKGRFTISRDNAKMTVYLQMNSLKPEDTAVYYCKVPTEKGNYWGQGTQVTVSSAPELLGGPDVFLFPPKPKDTLMISRTPEVTCVVVDVSHEDPEVKFNWYVDGVEVHNAKTKPREEQYNSTYRVVSVLTVLHQDWLNGKEYKCKVSNKALPAPEEKTISKAKGQPREPQVYTLPPSRDELTKNQVSLTCLVKGFYPSDIAVEWESNGQPENNYKTTPPVLDSDGSFFLYSKLTVDKSRWQQGNVFSCSVMHEALHNHYTQKSLSLSPGK ?
[reply] 52.8

Origin of the recorded values: patent US20260209362A1
